- Tested on: BaF3
- test-details: Antiproliferative activity against mouse BaF3 cells expressing rearranged during transfection kinase G810C-CCDC6 incubated for 74 to 76 hrs by cell counting kit 8 method
endpoint-name: pIC50
Answer as the number alone; pIC50 is minus log10 of concentration in mol/L.

Cn1cc(C(=O)NC23CC4CC(CC(C4)C2)C3)c(Nc2ccc(Oc3ccnc4cc(OCCCN5CCOCC5)c(C(N)=O)cc34)c(F)c2)n1; 6.44
COc1cc2nccc(Oc3ccc(Nc4nn(C)cc4C(=O)Nc4cccc(F)c4)cc3)c2cc1C(N)=O; 5.07
COc1cc2nccc(Oc3ccc(Nc4nn(C)cc4C(=O)NC45CC6CC(CC(C6)C4)C5)c(C#N)c3)c2cc1C(N)=O; 6.83

As a next step, examine the compound that follows.
Ask: // lookup pIC50 for COc1cc(Oc2ccnc3cc(OC)c(C(N)=O)cc23)ccc1Nc1nn(C)cc1C(=O)NC12CC3CC(CC(C3)C1)C2
Result: 6.46

====

Form field: IC50 (one value per entry).
- Test system: BaF3
- test-details: Antiproliferative activity against mouse BaF3 cells expressing rearranged during transfection kinase G810C-CCDC6 incubated for 74 to 76 hrs by cell counting kit 8 method

COc1cc2nccc(Oc3ccc(Nc4nn(C)cc4C(=O)NC4CCCC4)cc3)c2cc1C(N)=O; 3610 nM
COc1cc2nccc(Oc3ccc(Nc4nn(C)cc4C(=O)N4CCCCC4)cc3)c2cc1C(N)=O; 5760 nM
COc1cc2nccc(Oc3ccc(Nc4nn(C)cc4C(=O)NC4CCCCCCC4)cc3)c2cc1C(N)=O; 95.3 nM

Ask: Given the compound COc1cc2nccc(Oc3ccc(Nc4nn(C)cc4C(=O)NOCc4ccccc4)cc3)c2cc1C(N)=O , what is its reported IC50?
Result: > 10000 nM

Ask: Which IC50 value belongs to CNC(=O)c1cc2c(Oc3ccc(Nc4nn(C)cc4C(=O)NC45CC6CC(CC(C6)C4)C5)cc3F)ccnc2cc1OC ?
Result: 122 nM

====

- System: BaF3
- test-details: Antiproliferative activity against mouse BaF3 cells expressing rearranged during transfection kinase G810C-CCDC6 incubated for 74 to 76 hrs by cell counting kit 8 method
Parameter: IC50. Scope: all listed entries.
Give just the number in nM; leave the unit off.

COc1cc2nccc(Oc3ccc(Nc4nn(C)cc4C(=O)NC45CC6CC(CC(C6)C4)C5)cc3F)c2cc1C#N; 659

Ask: # lookup: IC50 of Cn1cc(C(=O)NC23CC4CC(CC(C4)C2)C3)c(Nc2ccc(Oc3ccnc4cc(OCCN5CCOCC5)c(C(N)=O)cc34)c(F)c2)n1
Result: 233

Ask: Looking for the measured IC50 of COc1cc2nccc(Oc3ccc(Nc4nn(C)cc4C(=O)NC45CC6CC(CC(C6)C4)C5)cc3F)c2cc1C(N)=O , can you help?
Result: 1000

Ask: Could you share which IC50 value was measured for COc1ccc(CN2C3CC2CN(c2ccc(-c4cc(OCC(C)(C)O)cn5ncc(C#N)c45)cn2)C3)cn1 ?
Result: 472

====

- System: BaF3
- test-details: Antiproliferative activity against mouse BaF3 cells expressing rearranged during transfection kinase G810C-CCDC6 incubated for 74 to 76 hrs by cell counting kit 8 method
pIC50 reference
Notebook: values listed as pIC50 are -log10 of the concentration (mol/L).

COc1cc2nccc(Oc3ccc(Nc4nn(C)cc4C(=O)Nc4ccc(F)cc4)cc3)c2cc1C(N)=O; 5.29
COc1cc2nccc(Oc3ccc(Nc4nn(C)cc4C(=O)NC45CC6CC(CC(C6)C4)C5)cc3)c2cc1C(N)=O; 7.00

Consider the additional compound presented here.
Ask: pIC50 for COc1cc2nccc(Oc3ccc(Nc4nn(C)cc4C(=O)NCC(C)C)cc3)c2cc1C(N)=O ?
Result: 5.64
